Test system: SKMM2 (cancer type: MM)
Experiment: normalized area under the dose-response curve (viability relative to DMSO control) (fraction); higher = less sensitive (more viable cells)
Conditions: exposure time not given
EXPERIMENTAL READOUT: normalized area under the dose-response curve
// return a plain number; no unit text

// worked examples, normalized area under the dose-response curve included
- Nc1ncn([C@@H]2O[C@H](CO)[C@@H](O)[C@H]2O)c(=O)n1 [Azacitidine]: 0.767
- COc1nc(N)nc2c1ncn2[C@@H]1O[C@H](CO)[C@@H](O)[C@@H]1O [Nelarabine]: 0.96
- CC1(COc2ccc3c(c2)ncn3-c2ccc3cccc(N4CCC(N)CC4)c3n2)COC1 [Crenolanib]: 0.663
- CNC(=O)c1cc(Oc2ccc(NC(=O)Nc3ccc(Cl)c(C(F)(F)F)c3)c(F)c2)ccn1 [Regorafenib]: 0.636
- Nc1nc(F)nc2c1ncn2[C@@H]1O[C@H](COP(=O)(O)O)[C@@H](O)[C@@H]1O [Fludarabine phosphate]: 0.88
- Cc1[nH]c2ccccc2c1CCNCc1ccc(/C=C/C(=O)NO)cc1 [Panobinostat]: 0.698
- CCN(CC)CCNC(=O)c1c(C)[nH]c(/C=C2\C(=O)Nc3ccc(F)cc32)c1C [Sunitinib]: 0.734
- O=C(CCCCCCC(=O)Nc1ccccc1)NO [Vorinostat]: 0.781

*Q* For the compound Nc1cccc2c1C(=O)N(C1CCC(=O)NC1=O)C2=O (stereo unspecified) [Pomalidomide] , what normalized area under the dose-response curve is on record?
*A* 0.973

*Q* Same thing, different compound: C/C=C1\NC(=O)[C@H]2CSSCC/C=C/[C@H](CC(=O)N[C@H](C(C)C)C(=O)N2)OC(=O)[C@H](C(C)C)NC1=O [Romidepsin]
*A* 0.511

*Q* Same thing, different compound: Cc1sc2c(c1C)C(c1ccc(Cl)cc1)=N[C@@H](CC(=O)Nc1ccc(O)cc1)c1nnc(C)n1-2 [otx-015]
*A* 0.657

Origin of measurements: the supplement of paper PMC7214452
